// reported IC50 for each item listed
system: Recombinant Human ENPP-2/Autotaxin (Homo sapiens, UniProt Q13822)
experiment_summary: LysoPLD activity measurement (autotaxin enzyme inhibition, choline release, TOOS reagent)
study_conditions: LysoPLD inhibitory activity; substrate 14:0 LysoPC; absorbance at 555 nm

compound | system | IC50
O=C(O)c1cccc(C2(n3c(=O)n(-c4ccc(C5=CCOCC5)cc4)c4cc(Cl)ccc43)CC2)c1F | Recombinant Human ENPP-2/Autotaxin (Homo sapiens, UniProt Q13822) | < 10 nM
O=C(O)c1cccc(Cn2c(=O)n(-c3ccc(C4CCN(C(=O)C5CCC5)CC4)cc3)c3cc(Cl)ccc32)c1 | Recombinant Human ENPP-2/Autotaxin (Homo sapiens, UniProt Q13822) | 100 to 1000 nM
O=C(O)c1cc(Cn2c(=O)n(-c3ccc(N4CCOCC4)cc3)c3c(F)c(Cl)ccc32)ccc1F | Recombinant Human ENPP-2/Autotaxin (Homo sapiens, UniProt Q13822) | 10 to 100 nM
O=C(O)c1cccc(Cn2c(=O)n(-c3ccc4c(c3)OCO4)c3cc(Cl)ccc32)c1 | Recombinant Human ENPP-2/Autotaxin (Homo sapiens, UniProt Q13822) | 100 to 1000 nM
O=C(O)c1cccc(C2(n3c(=O)n(-c4ccc(C5CCOCC5)cc4)c4cc(Cl)ccc43)CC2)c1F | Recombinant Human ENPP-2/Autotaxin (Homo sapiens, UniProt Q13822) | < 10 nM
CN(C)c1ccc(-n2c(=O)n(Cc3cccc(C(=O)O)c3)c3ccc(Cl)cc32)cn1 | Recombinant Human ENPP-2/Autotaxin (Homo sapiens, UniProt Q13822) | 10 to 100 nM
CN1CCN(c2ccc(-n3c(=O)n(Cc4cccc(C(=O)O)c4)c4ccc(Cl)cc43)cn2)CC1 | Recombinant Human ENPP-2/Autotaxin (Homo sapiens, UniProt Q13822) | 100 to 1000 nM
CC(C)n1cc(-n2c(=O)n(Cc3cccc(C(=O)O)c3)c3ccc(Cl)cc32)cn1 | Recombinant Human ENPP-2/Autotaxin (Homo sapiens, UniProt Q13822) | 100 to 1000 nM
O=C(O)c1cccc(C2(n3c(=O)n(-c4ccc(C5CCOC5)cc4)c4cc(Cl)ccc43)CC2)c1F (stereo not drawn) | Recombinant Human ENPP-2/Autotaxin (Homo sapiens, UniProt Q13822) | < 10 nM
O=C(O)c1cccc(C2(n3c(=O)n(-c4ccc(CC(=O)N5CCC(F)(F)CC5)cc4)c4cc(Cl)ccc43)CC2)c1 | Recombinant Human ENPP-2/Autotaxin (Homo sapiens, UniProt Q13822) | 10 to 100 nM
O=C(O)c1cccc(Cn2c(=O)n(-c3ccc(N4CCCCC4=O)cc3)c3cc(Cl)ccc32)c1 | Recombinant Human ENPP-2/Autotaxin (Homo sapiens, UniProt Q13822) | 10 to 100 nM
CCC(=O)N1CCC(c2ccc(-n3c(=O)n(C4(c5cc(F)cc(C(=O)O)c5)CC4)c4ccc(Cl)cc43)cc2)CC1 | Recombinant Human ENPP-2/Autotaxin (Homo sapiens, UniProt Q13822) | < 10 nM
O=C(O)c1cc(F)cc(C2(n3c(=O)n(-c4ccc(N5CC6(CCOCC6)C5)cc4)c4cc(Cl)ccc43)CC2)c1 | Recombinant Human ENPP-2/Autotaxin (Homo sapiens, UniProt Q13822) | < 10 nM
O=C(O)c1cccc(Cn2c(=O)n(-c3ccc(N4CC(O)C4)cc3)c3c(F)c(Cl)ccc32)c1F | Recombinant Human ENPP-2/Autotaxin (Homo sapiens, UniProt Q13822) | 10 to 100 nM
CC(C)(c1cccc(C(=O)O)c1)n1c(=O)n(-c2ccc(N3CC(O)C3)cc2)c2cc(Cl)ccc21 | Recombinant Human ENPP-2/Autotaxin (Homo sapiens, UniProt Q13822) | 10 to 100 nM
O=C(O)c1cccc(C2(n3c(=O)n(-c4ccc(C5(CO)CCC5)cc4)c4cc(Cl)ccc43)CC2)c1 | Recombinant Human ENPP-2/Autotaxin (Homo sapiens, UniProt Q13822) | < 10 nM
CN(C)c1ccc(-n2c(=O)n(Cc3cccc(C(=O)O)c3)c3cc(Cl)cc(F)c32)cc1 | Recombinant Human ENPP-2/Autotaxin (Homo sapiens, UniProt Q13822) | 100 to 1000 nM
O=C(O)c1cccc(Cn2c(=O)n(-c3ccc(N4CC(O)C4)cc3)c3c(F)c(Cl)ccc32)c1 | Recombinant Human ENPP-2/Autotaxin (Homo sapiens, UniProt Q13822) | 10 to 100 nM
CN(C)C(=O)c1ccc(-n2c(=O)n(Cc3cccc(C(=O)O)c3)c3ccc(Cl)cc32)cc1F | Recombinant Human ENPP-2/Autotaxin (Homo sapiens, UniProt Q13822) | 10 to 100 nM
O=C(O)c1cccc(Cn2c(=O)n(-c3ccc(OCC4CCC4)c(F)c3)c3cc(Cl)ccc32)c1 | Recombinant Human ENPP-2/Autotaxin (Homo sapiens, UniProt Q13822) | 100 to 1000 nM
O=C(O)c1cccc(Cn2c(=O)n(-c3ccc(F)cc3)c3cc(Cl)ccc32)c1 | Recombinant Human ENPP-2/Autotaxin (Homo sapiens, UniProt Q13822) | 100 to 1000 nM
O=C(O)c1cccc(C2(n3c(=O)n(-c4ccc(C5CCOCC5)cc4)c4cc(Cl)cnc43)CC2)c1F | Recombinant Human ENPP-2/Autotaxin (Homo sapiens, UniProt Q13822) | 10 to 100 nM
O=C(O)c1cccc(Cn2c(=O)n(-c3ccc(-c4ccccc4)cc3)c3cc(Cl)ccc32)c1 | Recombinant Human ENPP-2/Autotaxin (Homo sapiens, UniProt Q13822) | 100 to 1000 nM
O=C(O)c1cccc(Cn2c(=O)n(-c3ccc(C4=CCCCC4)cc3)c3cc(Cl)ccc32)c1 | Recombinant Human ENPP-2/Autotaxin (Homo sapiens, UniProt Q13822) | 100 to 1000 nM
CCC(=O)N1CCN(c2ccc(-n3c(=O)n(Cc4cccc(C(=O)O)c4F)c4ccc(Cl)cc43)cc2)CC1 | Recombinant Human ENPP-2/Autotaxin (Homo sapiens, UniProt Q13822) | 10 to 100 nM
O=C(O)c1cccc(C2(n3c(=O)n(-c4ccc(N5CC6(CCOCC6)C5)cc4)c4cc(Cl)ccc43)CC2)c1 | Recombinant Human ENPP-2/Autotaxin (Homo sapiens, UniProt Q13822) | < 10 nM
O=C(O)c1cccc(Cn2c(=O)n(-c3ccc(C4CCOCC4)cc3)c3cc(Cl)ccc32)c1 | Recombinant Human ENPP-2/Autotaxin (Homo sapiens, UniProt Q13822) | 10 to 100 nM
CN(C)c1ccc(-n2c(=O)n(Cc3cccc(C(=O)O)c3)c3ccc(Cl)cc32)nc1 | Recombinant Human ENPP-2/Autotaxin (Homo sapiens, UniProt Q13822) | 100 to 1000 nM
O=C(O)c1cccc(C2(n3c(=O)n(-c4ccc(N5C(=O)OCC56CC6)cc4)c4cc(Cl)ccc43)CC2)c1 | Recombinant Human ENPP-2/Autotaxin (Homo sapiens, UniProt Q13822) | < 10 nM
CN(C)c1ccc(-n2c(=O)n(Cc3cccc(C(=O)O)c3)c3ccc(Cl)c(F)c32)cc1 | Recombinant Human ENPP-2/Autotaxin (Homo sapiens, UniProt Q13822) | 10 to 100 nM
